- assay: qHTS assay for cell viability of the p53RE-bla HCT-116 cell line (AID 743292); note: nearly all actives have a fitted effect of over 55% in size
- condition.notes: p53RE-bla HCT-116 viability, ATP luminescence, 16 h; series mostly up to 95 µM
Inconclusive results are not listed. Active and inactive are the calls of the source. Calls come from the whole dose curve; as a rule, active = well fitted cell-killing curve with a large enough effect; inconclusive = small, poorly fitted or top-dose-only effect, or effect the other way; inactive = flat fitted curve, though single readings scatter.
property.name: outcome

smiles.text	result
S=C(NC1CCCCC1)NC1CCCCC1	inactive
Nc1cc(C(=O)O)c(O)c(S(=O)(=O)O)c1	inactive
Cc1ccc(N)cc1[N+](=O)[O-]	inactive
Nc1ccc(-c2ccc(N)c(O)c2)cc1O	inactive
C/C=C1/C(=O)C[C@H]2[C@@H]3CCC4=CC(=O)CC[C@]4(C)[C@H]3CC[C@]12C	inactive
O=[N+]([O-])c1cc(Cl)c(Cl)c(Cl)c1Cl	inactive
O=[N+]([O-])c1ccc(F)cc1F	inactive
Cc1cc2nc(N)sc2cc1C	inactive
Cc1cc(=O)oc2cc(O)cc(O)c12	inactive
CCNC(=S)NCC	inactive
COc1cc(-c2ccc(N=C=O)c(OC)c2)ccc1N=C=O	inactive
Oc1c(Cl)cc(Cl)c(Cl)c1Cl	inactive
CCCCOC(=O)COc1ccc(Cl)cc1Cl	inactive
c1ccc2c(c1)ccc1ccccc12	inactive
